B1: CPEB3 Ribozyme (parent)
chain: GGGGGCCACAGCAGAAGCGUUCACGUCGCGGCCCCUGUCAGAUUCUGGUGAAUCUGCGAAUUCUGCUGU

- Variants of: B1
- Test: self-cleavage, relative activity (ratio to wild type); higher = more cleavage; co-transcriptional
# cutoff 0.9 applies to self-cleavage; >= gives satisfied, < gives not satisfied

Is it the case that G25U G30C has self-cleavage reaching or exceeding 0.9?
not satisfied

Is it the case that U43A U61C has self-cleavage reaching or exceeding 0.9?
not satisfied

Is it the case that G1U C39U has self-cleavage reaching or exceeding 0.9?
not satisfied

Is it the case that C39G U53C has self-cleavage reaching or exceeding 0.9?
not satisfied

Is it the case that G30C A52U has self-cleavage reaching or exceeding 0.9?
not satisfied

Is it the case that C7U G17U has self-cleavage reaching or exceeding 0.9?
not satisfied

Is it the case that C32G A51U has self-cleavage reaching or exceeding 0.9?
not satisfied

Is it the case that A40G G68A has self-cleavage reaching or exceeding 0.9?
satisfied

Is it the case that C6U C45U has self-cleavage reaching or exceeding 0.9?
satisfied

Is it the case that G47U U61A has self-cleavage reaching or exceeding 0.9?
satisfied

Is it the case that A23U G68A has self-cleavage reaching or exceeding 0.9?
satisfied

Is it the case that G14U A23U has self-cleavage reaching or exceeding 0.9?
satisfied

Is it the case that `G25C` has self-cleavage reaching or exceeding 0.9?
not satisfied

Is it the case that U36G U44G has self-cleavage reaching or exceeding 0.9?
not satisfied

Is it the case that G11A C34U has self-cleavage reaching or exceeding 0.9?
satisfied

Is it the case that U38G C66A has self-cleavage reaching or exceeding 0.9?
not satisfied

Is it the case that A15U U61C has self-cleavage reaching or exceeding 0.9?
not satisfied

Is it the case that U43A C45A has self-cleavage reaching or exceeding 0.9?
not satisfied

Is it the case that G11U A13G has self-cleavage reaching or exceeding 0.9?
not satisfied

Is it the case that C22A U43G has self-cleavage reaching or exceeding 0.9?
not satisfied

Is it the case that C7G C22U has self-cleavage reaching or exceeding 0.9?
not satisfied

Is it the case that G17C C22G has self-cleavage reaching or exceeding 0.9?
not satisfied

Is it the case that U36C U43C has self-cleavage reaching or exceeding 0.9?
not satisfied

Is it the case that G5A C24U has self-cleavage reaching or exceeding 0.9?
not satisfied

Is it the case that C7G G50A has self-cleavage reaching or exceeding 0.9?
not satisfied

Is it the case that C12U A51U has self-cleavage reaching or exceeding 0.9?
satisfied

Is it the case that C7G G65A has self-cleavage reaching or exceeding 0.9?
not satisfied

Is it the case that C35A U67C has self-cleavage reaching or exceeding 0.9?
not satisfied

Is it the case that A51U C63U has self-cleavage reaching or exceeding 0.9?
satisfied

Is it the case that G19C A52G has self-cleavage reaching or exceeding 0.9?
not satisfied

Is it the case that C29U G41A has self-cleavage reaching or exceeding 0.9?
not satisfied

Is it the case that U38C G41A has self-cleavage reaching or exceeding 0.9?
not satisfied

Is it the case that G5A C57U has self-cleavage reaching or exceeding 0.9?
not satisfied

Is it the case that U43C U62A has self-cleavage reaching or exceeding 0.9?
not satisfied
